Source: ChEMBL document CHEMBL5727139

study system: Leucyl-cystinyl aminopeptidase (Rattus norvegicus, UniProt P97629)
Sequence (P97629 whole entry): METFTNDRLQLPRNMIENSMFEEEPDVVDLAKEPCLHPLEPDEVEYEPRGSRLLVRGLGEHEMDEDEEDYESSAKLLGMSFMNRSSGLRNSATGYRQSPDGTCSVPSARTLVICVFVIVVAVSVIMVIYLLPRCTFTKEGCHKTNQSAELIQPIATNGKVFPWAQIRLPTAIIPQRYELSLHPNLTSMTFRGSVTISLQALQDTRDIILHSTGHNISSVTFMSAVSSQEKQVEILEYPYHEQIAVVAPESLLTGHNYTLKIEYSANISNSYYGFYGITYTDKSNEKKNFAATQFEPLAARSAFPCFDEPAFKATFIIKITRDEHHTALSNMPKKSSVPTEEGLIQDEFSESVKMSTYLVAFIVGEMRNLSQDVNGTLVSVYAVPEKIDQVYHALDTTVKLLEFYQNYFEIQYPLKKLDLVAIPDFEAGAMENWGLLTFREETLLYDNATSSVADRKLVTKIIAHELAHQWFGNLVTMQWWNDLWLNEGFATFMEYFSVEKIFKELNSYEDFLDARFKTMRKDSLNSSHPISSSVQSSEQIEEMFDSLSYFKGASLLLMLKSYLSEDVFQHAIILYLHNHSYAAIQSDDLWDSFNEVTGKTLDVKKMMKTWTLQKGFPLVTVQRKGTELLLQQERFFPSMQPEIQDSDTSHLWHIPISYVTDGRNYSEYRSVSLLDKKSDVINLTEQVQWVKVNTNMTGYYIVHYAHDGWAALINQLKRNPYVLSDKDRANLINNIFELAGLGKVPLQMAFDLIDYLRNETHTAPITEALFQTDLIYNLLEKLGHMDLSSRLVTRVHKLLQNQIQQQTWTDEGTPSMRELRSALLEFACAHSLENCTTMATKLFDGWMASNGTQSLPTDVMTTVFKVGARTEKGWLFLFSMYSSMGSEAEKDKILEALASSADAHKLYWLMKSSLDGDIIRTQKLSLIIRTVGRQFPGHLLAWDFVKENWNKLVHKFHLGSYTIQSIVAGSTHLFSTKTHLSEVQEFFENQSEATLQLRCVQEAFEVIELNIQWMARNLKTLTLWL
pIC50: −log10 of the molar value.
The threshold is inclusive: pIC50 of exactly 8 counts as Met; values below receive Not met.

# compound, group
records = [
    ("Cc1cnc(C[C@](O)(C(=O)O)[C@@H](N)CCC2CC2)cc1CCCC1CC1", "Met"),
    ("Cc1c(CCCC2CC2)ccnc1C[C@](O)(C(=O)O)[C@@H](N)CC(C)C", "Not met"),
    ("CCCC1CC1c1ccnc(C[C@](O)(C(=O)O)[C@@H](N)CC(C)C)c1 (stereo not given in full)", "Not met"),
]
